# shrunken log2 fold change per record follows
Test system: Escherichia coli TOP10
Assay: shrunken log2 fold change of peptide-encoding DNA abundance (4.5 h post-induction vs induction); higher = less antimicrobial activity (less host growth inhibition)
Details: time post-induction: 4.5 h; library: site-saturation at positions 5, 18, 19, 20
Kindly provide the number alone.

RRIRERPPRLPRPRPRPPESPRP: 0.16
RRIRPRPPRLPRPRPRPGFVPRP: 0.143
RRIRCRPPRLPRPRPRPIHFPRP: -0.368
RRIRCRPPRLPRPRPRPYNSPRP: -0.325

Query: shrunken log2 fold change; subject: RRIRSRPPRLPRPRPRPWYPPRP
-0.301

Query: shrunken log2 fold change; subject: RRIRGRPPRLPRPRPRPMPQPRP
0.255

Query: shrunken log2 fold change; subject: RRIRVRPPRLPRPRPRPEPVPRP
0.365

====

System: Escherichia coli TOP10
Assay: shrunken log2 fold change of peptide-encoding DNA abundance (4.5 h post-induction vs induction); higher = less antimicrobial activity (less host growth inhibition)
Conditions: time post-induction: 4.5 h; library: site-saturation at positions 5, 18, 19, 20
# shrunken log2 fold change per record follows

As a guide, the following entries are already answered.
RRIRRRPPRLPRPRPRPRIMPRP: 0.0517
RRIRVRPPRLPRPRPRPKYAPRP: -0.236
RRIRSRPPRLPRPRPRPLSYPRP: -0.464
RRIRTRPPRLPRPRPRPPQFPRP: 0.11
RRIRSRPPRLPRPRPRPIIIPRP: -0.159

Kindly review the next sequence as well.
Query: shrunken log2 fold change; subject: RRIRKRPPRLPRPRPRPNPCPRP
0.117

====

System: Escherichia coli TOP10
Assay: shrunken log2 fold change of peptide-encoding DNA abundance (4.5 h post-induction vs induction); higher = less antimicrobial activity (less host growth inhibition)
Details: time post-induction: 4.5 h; library: site-saturation at positions 5, 18, 19, 20
# shrunken log2 fold change per record follows
Kindly provide the number alone.

As a guide, the following entries are already answered.
RRIRYRPPRLPRPRPRPTIWPRP: -0.196
RRIRVRPPRLPRPRPRPPLQPRP: 0.272
RRIRGRPPRLPRPRPRPYDVPRP: -0.00115
RRIRERPPRLPRPRPRPSFWPRP: 0.132

Query: shrunken log2 fold change; subject: RRIRHRPPRLPRPRPRPDFGPRP
-0.156

Query: shrunken log2 fold change; subject: RRIRNRPPRLPRPRPRPHSTPRP
-0.412

Query: shrunken log2 fold change; subject: RRIRKRPPRLPRPRPRPKFHPRP
0.161

Query: shrunken log2 fold change; subject: RRIRSRPPRLPRPRPRPLMRPRP
0.948

Query: shrunken log2 fold change; subject: RRIRYRPPRLPRPRPRPKKFPRP
-0.0477

Query: shrunken log2 fold change; subject: RRIRERPPRLPRPRPRPKGQPRP
0.132

Query: shrunken log2 fold change; subject: RRIRPRPPRLPRPRPRPIFDPRP
-0.137

====

System: Escherichia coli TOP10;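 note: peptides expressed intracellularly from a pBAD plasmid library in pooled LB shake-flask culture, induced with 0.3% L-arabinose, DNA abundance read by NGS, three biological replicates, DESeq2 with apeglm shrinkage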
Assay: shrunken log2 fold change of peptide-encoding DNA abundance (4.5 h post-induction vs induction); higher = less antimicrobial activity (less host growth inhibition)
Settings: time post-induction: 4.5 h; library: site-saturation at positions 5, 18, 19, 20
assayReadout: shrunken log2 fold change
Kindly provide the number alone.

RRIRARPPRLPRPRPRPEWNPRP: 0.76
RRIRTRPPRLPRPRPRPIAAPRP: 0.894
RRIRGRPPRLPRPRPRPSCAPRP: 1.08
RRIRGRPPRLPRPRPRPNYLPRP: -0.304
RRIRHRPPRLPRPRPRPDWPPRP: 0.114
RRIRERPPRLPRPRPRPQYAPRP: -0.158

Query: shrunken log2 fold change; subject: RRIRLRPPRLPRPRPRPQKWPRP
2.37

Data credit: the supplement of paper PMC9112550
